targetOrTestSystem: thrombin (Homo sapiens (Human))
valueType: IC50

Look over these answered cases.
O=C(CN1C(=O)[C@@H](NC(=O)c2ccccc2)COc2ccccc21)N[C@@H](C[C@@H]1CCNC1=O)C(=O)COC(=O)c1c(Cl)cccc1Cl: > 32 µM
COc1cccc2[nH]c(C(=O)N[C@@H](CC(C)C)C(=O)N[C@@H](C[C@@H]3CCNC3=O)C(=O)COC(=O)c3c(Cl)cccc3Cl)cc12 [AP-8-001, reference compound]: > 10 µM

Enquiry: Suppose we examine the compound `O=C(CN1C(=O)[C@@H](NC(=O)OCc2ccccc2)COc2ccccc21)N[C@@H](C[C@@H]1CCNC1=O)C(=O)COC(=O)c1c(Cl)cccc1Cl` ; what IC50 value has been reported?
Return: > 32 µM

* * *

targetOrTestSystem: cathepsin B (Homo sapiens (Human))
assaySummary: Cathepsin B enzymatic assay
Assay type: biochemical
conditionDescription: read-out: Cathepsin B IC50
valueType: IC50

Enquiry: Suppose we examine the compound `O=C(CN1C(=O)[C@@H](NC(=O)OCc2ccccc2)COc2ccccc21)N[C@@H](C[C@@H]1CCNC1=O)C(=O)COC(=O)c1c(Cl)cccc1Cl` ; what IC50 value has been reported?
Return: > 15 µM

* * *

assaySummary: Metabolic stability in mouse liver microsomes
valueType: half-life

Look over these answered cases.
COc1cccc2[nH]c(C(=O)N[C@@H](CC(C)C)C(=O)N[C@@H](C[C@@H]3CCNC3=O)C(=O)COC(=O)c3c(Cl)cccc3Cl)cc12 [AP-8-001, reference compound]: < 2 min
N[C@H]1COc2ccccc2N(CC(=O)N[C@@H](C[C@@H]2CCNC2=O)C(=O)COC(=O)c2c(Cl)cccc2Cl)C1=O.O=C(O)C(F)(F)F [AP-9-055]: < 2 min
O=C(CN1C(=O)[C@@H](NC(=O)c2ccccc2)COc2ccccc21)N[C@@H](C[C@@H]1CCNC1=O)C(=O)COC(=O)c1c(Cl)cccc1Cl [AP-8-011]: < 2 min

Now consider the entry below.
Enquiry: Suppose we examine the compound O=C(CN1C(=O)[C@@H](NC(=O)OCc2ccccc2)COc2ccccc21)N[C@@H](C[C@@H]1CCNC1=O)C(=O)COC(=O)c1c(Cl)cccc1Cl [AP-8-013] ; what half-life value has been reported?
Return: < 2 min

* * *

assaySummary: Male hamster pharmacokinetic study, plasma and lung
conditionDescription: ip, 10 mg/kg
valueType: Kp
Please give the numeric answer without any surrounding text.

Enquiry: Suppose we examine the molecule `O=C(CN1C(=O)[C@@H](NC(=O)OCc2ccccc2)COc2ccccc21)N[C@@H](C[C@@H]1CCNC1=O)C(=O)COC(=O)c1c(Cl)cccc1Cl` ; what Kp value has been reported?
Return: 3.2

* * *

System: SARS-CoV-2 Omicron (B.1.1.529)
assaySummary: Virus replication in Vero-E6 cells, nucleocapsid immunostaining and high-content imaging, Omicron
Assay type: cell-based
conditionDescription: read-out: EC50 against virus replication
valueType: pEC50
// pEC50 is dimensionless: -log10 of concentration (M)

Enquiry: Suppose we examine the compound CC(C)(C)[C@H](NC(=O)C(F)(F)F)C(=O)N1C[C@H]2[C@@H]([C@H]1C(=O)N[C@H](C#N)C[C@@H]1CCNC1=O)C2(C)C [PF07321332] ; what pEC50 value has been reported?
Return: 6.36

* * *

// IC50 lookup, one value per entry
targetOrTestSystem: cathepsin B (Homo sapiens (Human))
assaySummary: Cathepsin B enzymatic assay
Format: biochemical
conditionDescription: read-out: CatB IC50
Give a bare numeral; the unit µM is implied.

Look over these answered cases.
O=C(CN1C(=O)[C@@H](NC(=O)OCc2ccccc2)COc2ccccc21)N[C@@H](C[C@@H]1CCNC1=O)C(=O)COC(=O)c1c(Cl)cccc1Cl: 18
O=C(CN1C(=O)[C@@H](NC(=O)c2ccccc2)COc2ccccc21)N[C@@H](C[C@@H]1CCNC1=O)C(=O)COC(=O)c1c(Cl)cccc1Cl: 13

Now consider the entry below.
Enquiry: Suppose we examine the compound COc1cccc2[nH]c(C(=O)N[C@@H](CC(C)C)C(=O)N[C@@H](C[C@@H]3CCNC3=O)C(=O)COC(=O)c3c(Cl)cccc3Cl)cc12 [AP-8-001, reference compound] ; what IC50 value has been reported?
Return: 0.024

FYI, the data here is from patent US20250092029A1.
